Target Desc: T1, PUF4 RNA-binding domain (Saccharomyces cerevisiae, UniProt P25339 537-888)
T1 sequence: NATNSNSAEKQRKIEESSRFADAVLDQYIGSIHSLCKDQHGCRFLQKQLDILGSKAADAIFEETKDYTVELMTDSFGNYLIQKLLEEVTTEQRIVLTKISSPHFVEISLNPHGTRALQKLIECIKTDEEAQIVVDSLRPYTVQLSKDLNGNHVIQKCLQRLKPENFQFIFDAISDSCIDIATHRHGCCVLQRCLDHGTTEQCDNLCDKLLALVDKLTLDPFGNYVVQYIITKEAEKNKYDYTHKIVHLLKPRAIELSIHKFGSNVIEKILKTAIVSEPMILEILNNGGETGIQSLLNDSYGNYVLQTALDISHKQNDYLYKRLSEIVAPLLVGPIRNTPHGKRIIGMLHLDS
Protocol: Mg; RNA-MaP; 20 mM Na-HEPES pH 7.4, 30 mM KOAc, 0.75 mM MgCl2, 0.1% Tween-20, 5% glycerol, 0.1 mg/mL BSA, 2 mM DTT; 25 C; 0.0125-409.6 nM protein
Condition Summary: tags: N-His6-TEV cleaved; C-SNAP kept, Cy3B-labelled; label: tethered on chip by stalled RNA polymerase
Recorded Metric: pKd
Give only the number. pKd is defined as minus log10 of concentration in molar units.

Ie_S2_P4E.1_K4.1_C4.1_H4.1_A4.1_[+5TCTCT]_F4.1_T4.1 (ssRNA) RNA: UUUGAUUAAUAUGAUAUCGUUCUUUCUUGUAUUCUCUAUUAUUCUUUCUCGAUAUCAUAUUAAUCUUU : 8.11
Id_ii_S2_P3E.2_K3.1_C3.2_H3.1_A3.1_F3.1_T3.2_[T9G]_[A10C] (ssRNA) RNA: UUUGAUUAAUAUGAUAUCGUUCUUUCUCUUGUAUAUAGCUUCUUUCUCGAUAUCAUAUUAAUCUUU : 8.61

Next item in the queue.
For UCUCUUUGUAGUUUGUCUCUU (ssRNA) [Ic_S1_P4E.1_K4.1_C4.1_H4.1_A4.1_[T5G]_[A6T]_F4.1_[A9G]_T4.1] the binder record lists pKd as 6.54
